Tested target: p-EGFR Del19/C797S (H1975-clone #23 cells) (Homo sapiens)
Sequence (P00533 with tags, fused parts or gaps DEL746-750/C797S, form open): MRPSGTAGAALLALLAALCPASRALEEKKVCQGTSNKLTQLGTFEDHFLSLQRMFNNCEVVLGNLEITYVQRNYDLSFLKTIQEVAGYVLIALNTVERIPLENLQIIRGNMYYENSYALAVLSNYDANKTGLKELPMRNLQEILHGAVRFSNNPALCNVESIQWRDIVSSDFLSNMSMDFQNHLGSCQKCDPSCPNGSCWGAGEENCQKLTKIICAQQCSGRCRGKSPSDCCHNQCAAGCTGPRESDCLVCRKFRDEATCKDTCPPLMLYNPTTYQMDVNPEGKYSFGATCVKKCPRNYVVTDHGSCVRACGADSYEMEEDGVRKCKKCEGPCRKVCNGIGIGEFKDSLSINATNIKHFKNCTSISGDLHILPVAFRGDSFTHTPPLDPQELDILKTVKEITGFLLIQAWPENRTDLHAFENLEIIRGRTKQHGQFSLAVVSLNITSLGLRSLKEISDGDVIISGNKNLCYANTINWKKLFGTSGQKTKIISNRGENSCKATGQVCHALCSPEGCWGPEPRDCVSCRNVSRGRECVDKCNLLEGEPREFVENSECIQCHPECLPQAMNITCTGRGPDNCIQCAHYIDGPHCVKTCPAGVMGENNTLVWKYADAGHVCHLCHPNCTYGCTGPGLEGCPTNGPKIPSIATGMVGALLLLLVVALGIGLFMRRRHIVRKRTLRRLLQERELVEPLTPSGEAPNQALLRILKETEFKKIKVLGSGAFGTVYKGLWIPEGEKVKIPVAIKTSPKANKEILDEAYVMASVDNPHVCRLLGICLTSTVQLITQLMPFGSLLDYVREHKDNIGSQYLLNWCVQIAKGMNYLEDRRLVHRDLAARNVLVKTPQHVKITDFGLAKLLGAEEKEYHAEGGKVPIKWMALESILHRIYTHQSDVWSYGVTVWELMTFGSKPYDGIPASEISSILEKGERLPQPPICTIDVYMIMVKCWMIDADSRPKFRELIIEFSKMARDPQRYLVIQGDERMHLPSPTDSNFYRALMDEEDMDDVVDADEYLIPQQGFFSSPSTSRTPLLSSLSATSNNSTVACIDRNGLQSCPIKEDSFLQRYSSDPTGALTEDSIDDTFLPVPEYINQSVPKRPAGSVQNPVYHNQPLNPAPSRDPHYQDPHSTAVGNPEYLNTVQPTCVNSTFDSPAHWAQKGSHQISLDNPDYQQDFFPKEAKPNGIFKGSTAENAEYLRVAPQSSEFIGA
Protocol: Cell p-EGFR inhibition assay, HTRF, H1975-clone#23 (DEL19/C797S) cells
Condition label: 16 h treatment, pEGFR inhibition
Readout type: IC50 (nM)

[[record]]
molecule = "Cc1cc2cc(n1)-c1cnn(C)c1OC[C@H]1CCC(C1)CN1/C(=N/C2=O)Nc2ccc(N3CCN(C4CCN(c5cc(F)c([C@H]6CCC(=O)NC6=O)c(F)c5)CC4)[C@@H](CO)C3)cc21"
readout_type = "IC50"
value_unit = "nM"
observed_value = 0.6

[[record]]
molecule = "Cc1cc2cc(n1)-c1c(C)nn(C)c1OC[C@H]1CC[C@H](C1)CN1/C(=N/C2=O)Nc2ccc(N3CCC(C)(CN(C)C4CCN(c5cc(F)c([C@H]6CCC(=O)NC6=O)c(F)c5)CC4)CC3)cc21"
readout_type = "IC50"
value_unit = "nM"
observed_value = 2.56

[[record]]
molecule = "Cc1cc2cc(n1)-c1cnn(C)c1OC[C@H]1CCC(C1)CN1/C(=N/C2=O)Nc2cc(F)c(N3CCN(C4CCN(c5cnc(C6CCC(=O)NC6=O)cc5C)CC4)CC3)cc21 (stereo partly shown)"
readout_type = "IC50"
value_unit = "nM"
observed_value = 0.5

[[record]]
molecule = "COC[C@@H]1CN(c2ccc3c(c2)N2CC4CC[C@H](COc5c(cnn5C)-c5cc(cc(C)n5)C(=O)/N=C/2N3)C4)CCN1C1CCN(c2cc(F)c(C3CCC(=O)NC3=O)nc2C)CC1 (stereo partly shown)"
readout_type = "IC50"
value_unit = "nM"
observed_value = 1.4


// data source = patent US20240425523A1
